assay: melting temperature; fluorescence melt of hairpins on a sequencing array, two-state fit, raised by 9.35 °C to match UV melts; details: sodium 0.088 M
Reported values of Tm for individual entries
measure_name: Tm (°C)

sequence_text | measure_name | quantity_unit | numeric_value
GAGGAGCGAAAGCTCTC (((.(((....)))))) | Tm | °C | 48.2
GGAGAGGAAACTCTCC ((((((....)))))) | Tm | °C | 56.9
GGCTGAACGAAAGTTGCC (((..(((....)))))) | Tm | °C | 46.9
GGTATTGGAAACAGTACC ((((.((....)).)))) | Tm | °C | 39.6
GGGTATGGAAACACACCC ((((.((....)).)))) | Tm | °C | 42.8
GGCCACGGAAACGTAGCC (((.(((....))).))) | Tm | °C | 50.8

====

assay: melting temperature; fluorescence melt of hairpins on a sequencing array, two-state fit, raised by 9.35 °C to match UV melts; conditions: sodium 0.088 M
Classify by Tm. Ranges: bin 1: < 40 °C; bin 2: ≥ 40 °C and < 50 °C; bin 3: ≥ 50 °C

sequence_text | category_label
GGCAGCGAAAGCTGAGCC ((((((....)))..))) | bin 3
GCTCCGCGAAAGCTTAGC (((..((....))..))) | bin 1
GCGCTCGAAAGAGGTCGC ((((((....)))..))) | bin 2
GATCATCTTGATGATC ((((((....)))))) | bin 3
GATCGACGAGTCGATC ((((((....)))))) | bin 3
GGGGTCGAAAGACGTCCC ((((((....)))..))) | bin 2
GGTACTGCGAAAGCAACC (((..(((....)))))) | bin 1
GAGATAACGAAAGTTCTC (((..(((....)))))) | bin 1
GATCTGTAATCAGATC ((((((....)))))) | bin 2
GATCAATTACTTGATC ((((((....)))))) | bin 2
GAGACTGGAAACAGCCTC (((.(((....))).))) | bin 2
GCCTTCGAAAGAATCGGC ((((((....)))..))) | bin 1
GTAAGTGGAAACACTTGC (.(((((....))))).) | bin 2
GATCAGCAAGCTGATC ((((((....)))))) | bin 3
GATCACTCTGGTGATC ((((((....)))))) | bin 3
GTTTTCGGAAACGAGAAC (((.(((....))).))) | bin 2
CGCGGAAGGTCCGCG ((((((...)))))) | bin 3
GATCTGGTCCCAGATC ((((((....)))))) | bin 3
GCTGACGAAAGTCAGAGC ((((((....)))..))) | bin 3
GCTCCGCGAAAGCACAGC (((..((....))..))) | bin 1
GATCTTTCTCAAGATC ((((((....)))))) | bin 2

====

test: folding enthalpy; higher = less favourable; fluorescence melt of hairpins on a sequencing array, two-state fit; conditions: sodium 0.088 M
Quick rule: folding enthalpy of at least -30 kcal/mol means 1, below that means 0.

sequence_text | category_label
GTGGTAGGAAACTATCGC (.(.(((....))).).) | 1
GTCCCTGGAAACAGAGAC (((.(((....))).))) | 1
GATCCGATCACGGATC ((((((....)))))) | 0
GGATGTGGAAACACACCC ((.((((....)))).)) | 1
GTAAGTCGAAAGACGTAC (((.(((....))).))) | 1
GATACGGGAAACCGCATC (((.(((....))).))) | 1

====

assay: folding enthalpy; higher = less favourable; fluorescence melt of hairpins on a sequencing array, two-state fit; conditions: sodium 0.088 M

sequence_text | folding enthalpy (kcal/mol)
GTGAAAACGAAAGTTCAC (((..(((....)))))) | -21.7
GTGTTACCGAAAGGTCAC (((..(((....)))))) | -23.6
GCCGAGGGAAACCTCAGC ((.((((....)))).)) | -23.7
GTCGAGCCGAAAGGCGAC (((..(((....)))))) | -8.79
CGGCACGGAAACGTCCG (((.(((....)))))) | -21.8
GATAGGGGAAACCCTGTC ((.((((....)))).)) | -25.4
GATCTATTGTTAGATC ((((((....)))))) | -35.9
GGAGGCGAAAGCCCGTCC ((((((....)))..))) | -8.99
GCTATGGGAAACCATGGC ((.((((....)))).)) | -41
GCTTCCGAAAGGAGAGC ((((((....))).))) | -22.3
GCTTTGCGAAAGCAGTGC ((..(((....)))..)) | -13.8
GAAGACGAAAGTCCTTTC ((((((....)))..))) | -11.6
GACGACGAAAGTCTTGTC ((((((....)))..))) | -16.2
GTGAAGGCGAAAGCCCAC (((..(((....)))))) | -15.6
GCTTGAGGAAACTCAAAC (.(((((....))))).) | -13.8
GTTTTCGGAAACGAAAAC (((((((....))))))) | -42.6
GCGGAGCGAAAGCTAAGC ((..(((....)))..)) | -12.8
GATTGAGCGAAAGCTATC (((..(((....)))))) | -11.6
GTCACAGGAAACTGTAAC ((.((((....)))).)) | -17.3
GCCGGGACGAAAGTCGGC (((..(((....)))))) | -29.8
TCCTTGAAAAAGGA (((((....))))) | -11.1
GATCTAACATAGATC ((((((...)))))) | -33.1
GATCGCCGAGCGATC ((((((...)))))) | -32.5
GTAGGCGGAAACACCTAC (((((.(....).))))) | -25.8
GGACCTGGAAACGGGTCC (((((.(....).))))) | -45

====

test: melting temperature; fluorescence melt of hairpins on a sequencing array, two-state fit, raised by 9.35 °C to match UV melts; conditions: sodium 0.088 M
measure_name: Tm (°C)

sequence_text | numeric_value
GCGGAGTACCGC ((((....)))) | 55.9
GATCATTCGCATGATC ((((((....)))))) | 47.5
GTCTATCGAAAGATGAC (((.(((....)))))) | 42
GTTCGGGGAAACCTGAGC (.((.((....)).)).) | 32.6
GACAACGAAAGTTATGTC ((((((....)))..))) | 32.3
GATCCGCGAAAGCGTATC (((.(((....))).))) | 43.4
GCCATAGGAAACCATGGC (((((.(....).))))) | 47.7
GGAGTGCGAAAGCATTCC (((.(((....))).))) | 58.1
GATCTGTAGGCAGATC ((((((....)))))) | 51.9
GGACGCGAAAGCGCTTCC ((((((....)))..))) | 47.5
GAAACGCCGAAAGGCTTC (((..(((....)))))) | 23.1
GATCATTAGTATGATC ((((((....)))))) | 45.2

====

Listing: folding enthalpy of selected sequences
test: folding enthalpy; higher = less favourable; fluorescence melt of hairpins on a sequencing array, two-state fit; settings: sodium 0.088 M

sequence_text | quantity_unit | folding enthalpy
GATCTGCCTCCAGATC ((((((....)))))) | kcal/mol | -32.6
GGTCGCGGAAACGCGATC (.(((((....))))).) | kcal/mol | -17.6
GCTGGTGCGAAAGCAAGC (((..(((....)))))) | kcal/mol | -14.5
GGTTTTTCGAAAGAAACC (((..(((....)))))) | kcal/mol | -18.8
GATCCTCTGAAGGATC ((((((....)))))) | kcal/mol | -36.8
GCGGCGCCCGC ((((...)))) | kcal/mol | -15.9

====

test: melting temperature; fluorescence melt of hairpins on a sequencing array, two-state fit, raised by 9.35 °C to match UV melts; details: sodium 0.088 M

sequence_text | Tm, °C
GCGTTAGCACGC ((((....)))) | 61.7
GCTGCAGCGAAAGCTAGC (((..(((....)))))) | 48.7
GTCCAGCGAAAGCTGAC (((.(((....)))))) | 46.4
GGACTAGGAAACTAGCCC ((.((((....)))).)) | 42.1
GTCATAGGAAACTATGGC (.(((((....))))).) | 44.6
GCAAACGAAAGTTCGTGC ((((((....)))..))) | 35.6
GATCCTCATGAGGATC ((((((....)))))) | 58.4
GCAGATGAAAATCTGC ((((((....)))))) | 59.9
GATCTTTGTGAAGATC ((((((....)))))) | 47.7
GATCCTTTGGAGGATC ((((((....)))))) | 53.3
GGTATCGGAAACGACACC (((.(((....))).))) | 43.4
GACATCGGAAACAATGTC (((((.(....).))))) | 34.1
GCACAGGGAAACCCGTGC ((((.((....)).)))) | 55.4
GCATGTCGAAAGACTGC (((.(((....)))))) | 56.1
GTCGTCGGAAACGGTGAC (((..((....))..))) | 42.4
GATCCTTGTAGGATC ((((((...)))))) | 55.1
GGAATAGGAAACCATTCC (((((.(....).))))) | 34.3
GGTATGGGAAACCGTACC ((((.((....)).)))) | 50.5
GCAGATGGAAACATCTGC (((((((....))))))) | 67.1
GACTCAGGAAACCGAGTC (((((.(....).))))) | 46.2
GGCCCGCCGAAAGGCGCC (((..(((....)))))) | 38
GAAACCCGAAAGGGATTC (((.(((....))).))) | 49.3
CGCTACGGAAACGTGGCG (((.(((....))).))) | 59.5
TAGCTGAAAAGCTA (((((....))))) | 46.9
GGTTGCGAAAGCATAACC ((((((....)))..))) | 45.9
